Sourced from patent US11214803B2

Listed substances paired with reported HGB
# experiment: Cynomolgus monkey tolerability, hematology (Example 34)
# Type: in vivo, cynomolgus monkeys
# condition set: cynomolgus monkey, in vivo, sc, 35 mg/kg
Just the number please, in g/dL, no unit attached.

Query block: Recall and state the measured HGB for 1198872 (TGTATGTCAGAAGAGT; chemically modified gapmer, further chemistry not given here) [compound 1198872] .
Result block: 13

Query block: Recall and state the measured HGB for 958499 (ATTAGAGTATGTGGCA; 3-10-3 cEt gapmer, further chemistry not given here) [compound 958499] .
Result block: 12

Query block: Recall and state the measured HGB for 1076453 (GTAATATTGCAATCTG; 3-10-3 cEt gapmer, further chemistry not given here) [compound 1076453] .
Result block: 13
